meta.source: ChEMBL document CHEMBL3988442

- System: Wolbachia pipientis
- assayInfo: Anti-Wolbachia Cell-Based Screen
- Type: functional
- Design: scale not given: in the data most compounds retested in dose-response had high values
- testParameters: 5 µM
In all, about 48,000 compounds went through this assay and about 13,000 (27%) showed an effect of 50% or more. The list shows a part of the results.

molecule	Percent Effect
O=c1[nH]nc2nc(N3CCCC3)ccn12	-11.65%
Cc1c(C)n(CC(O)CN2CCOCC2)c2c(Cl)cccc12.Cl (configuration not stated)	0.7413%
CCNC(=O)O[C@H]1COCCN(c2nc3ccccc3s2)C1	2.544%
O=c1[nH]nc2c(N3CCOCC3)nccn12	105.6%
CC(C)c1nccn1C(C)C(=O)NC1CCOCC1 (configuration not stated)	-4.368%
CCc1cc(N2CCC(NC3CCOCC3)CC2)nc(N(C)C)n1	-0.7364%
COc1cc2c(cc1C1CC(=O)NCc3nc(N(C)C)sc31)CCC2 (configuration not stated)	-15.52%
COc1cccc(S(=O)(=O)CCN2CCN(CCO)CC2)c1	9.306%
CCOCC(=O)N1CCCn2c(CN3CCOCC3)nnc2C1	89.68%
CCOCC(=O)N1CCCn2c(CN3CCCCC3)nnc2C1	101.4%
O=c1[nH]nc2c(N3CCC(NC4CCOCC4)CC3)nccn12	113.4%
O=c1[nH]nc2nc(N3CCSCC3)ccn12	-3.985%
